# assay-target: Dihydroorotate dehydrogenase (quinone), mitochondrial (Plasmodium falciparum (isolate 3D7)) (UniProt Q08210)
# Sequence (Q08210 whole entry, looked up): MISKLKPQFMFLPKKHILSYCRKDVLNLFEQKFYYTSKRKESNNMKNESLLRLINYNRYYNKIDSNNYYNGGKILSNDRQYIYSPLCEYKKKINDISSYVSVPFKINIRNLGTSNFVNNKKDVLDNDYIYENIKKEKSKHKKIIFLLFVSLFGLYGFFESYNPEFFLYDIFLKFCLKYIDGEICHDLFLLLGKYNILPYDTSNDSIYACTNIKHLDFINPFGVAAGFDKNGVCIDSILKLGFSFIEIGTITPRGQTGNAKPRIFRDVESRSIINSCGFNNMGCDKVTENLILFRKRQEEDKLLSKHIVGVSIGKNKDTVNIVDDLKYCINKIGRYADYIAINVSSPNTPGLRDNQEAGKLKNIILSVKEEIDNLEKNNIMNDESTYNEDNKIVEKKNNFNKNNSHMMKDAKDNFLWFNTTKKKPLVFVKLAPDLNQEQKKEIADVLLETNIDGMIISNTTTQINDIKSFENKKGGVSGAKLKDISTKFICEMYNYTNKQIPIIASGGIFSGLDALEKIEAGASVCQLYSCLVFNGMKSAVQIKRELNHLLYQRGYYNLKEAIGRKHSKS
# test-details: PfDHODH enzyme inhibitors, primary screen, biochemical, C-terminal His tag, absorbance 600 nm (AID 1175);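 further: recombinant parasite enzyme with a five histidine tag at its C terminus; test concentration not given here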
# measurement-parameters: DCIP absorbance 600 nm, higher = more signal, called active from +8 up or from −8 down
Where composite z-score equals or exceeds 0.4, the correct label is YES; where it does not, the label is NO.

// query Reported composite z-score reaches at least 0.4 for COc1ccc([Si](C)(C)[C@H]2[C@H](CC(=O)N3CCC[C@H]3CO)O[C@@]3(C(=O)N(Cc4cccc(N5C(=O)COc6ccccc65)c4)c4ccccc43)[C@@H]2C)cc1 ?
// result NO

// query Query C[C@@H]1CC[C@H]2C(=O)O[C@H](COc3ccc(C(C)(C)C)cc3)CN2[C@H]1c1ccc(Br)cc1 next
// result YES

// query Also, COc1ccc(O[C@H]2C=C[C@@H](c3ccccc3)O[C@@H]2COC(=O)CCC(C)=NOC(C)CN2CCCCc3nc(C)c(C)cc32)cc1 (some centres not stated) please.
// result NO

// query Please give the result for COC(=O)[C@@H]1CCCN1C(=O)[C@@H](C)CO too.
// result NO

// query What about this compound? COCCOC(=O)N1C(=O)[C@@]2(c3cc(C#CC4(O)CCCCCC4)ccc31)[C@H](c1ccc(OCCO)cc1)N1[C@H](c3ccccc3)[C@H](c3ccccc3)OC(=O)[C@H]1[C@@H]2C(=O)NC[C@H](O)c1ccccc1
// result YES

// query Subsequent entry: COc1cccc([C@H]2Oc3ccc(OC)cc3C(=NOC(C)CN3CCCc4nc(C)c(C)cc43)[C@@H]2O)c1 (some centres not stated)
// result YES
